Assay: Growth inhibition of mouse NIH/3T3 cells at 10 uM after 72 hrs by MTT assay
Format: cell-based, NIH3T3
Settings: read-out: GI
metric name: inhibition at 72 h, 10 µM (%)
Field format: number, assumed %, no unit text.

// inhibition at 72 h, 10 µM lookup, compound = C[C@H]1[C@H](C)CC[C@]2(C(=O)OCCN3CCN(C(=O)c4ccc(F)cc4)CC3)CC[C@]3(C)C(=CC[C@@H]4[C@@]5(C)CC[C@H](O)C(C)(C)[C@@H]5CC[C@]43C)[C@H]12 , result: 71.3

// inhibition at 72 h, 10 µM lookup, compound = C[C@H]1[C@H](C)CC[C@]2(C(=O)OCCBr)CC[C@]3(C)C(=CC[C@@H]4[C@@]5(C)CC[C@H](O)C(C)(C)[C@@H]5CC[C@]43C)[C@H]12 , result: 11

// inhibition at 72 h, 10 µM lookup, compound = CCCCCCCCC(=O)N1CCN(CCOC(=O)[C@]23CC[C@@H](C)[C@H](C)[C@H]2C2=CC[C@@H]4[C@@]5(C)CC[C@H](O)C(C)(C)[C@@H]5CC[C@@]4(C)[C@]2(C)CC3)CC1 , result: 12

// inhibition at 72 h, 10 µM lookup, compound = C[C@H]1[C@H](C)CC[C@]2(C(=O)OCCN3CCN(C(=O)c4ccncc4)CC3)CC[C@]3(C)C(=CC[C@@H]4[C@@]5(C)CC[C@H](O)C(C)(C)[C@@H]5CC[C@]43C)[C@H]12 , result: 55.4

// inhibition at 72 h, 10 µM lookup, compound = CC[C@@]1(O)C(=O)OCc2c1cc1n(c2=O)Cc2cc3cc(O)ccc3nc2-1 [HYDROXYCAMPTOTHECIN] , result: 9.3

###

Would you mind telling me the reported inhibition at 72 h, 10 µM of each entry?
Assay: Growth inhibition of mouse NIH/3T3 cells at 10 uM after 72 hrs by MTT assay
Format: cell-based, NIH3T3
Details: read-out: GI
State the value, then name its unit.

// inhibition at 72 h, 10 µM lookup, molecule = C[C@H]1[C@H](C)CC[C@]2(C(=O)OCCN3CCN(C(=O)Cc4ccc(Cl)cc4)CC3)CC[C@]3(C)C(=CC[C@@H]4[C@@]5(C)CC[C@H](O)C(C)(C)[C@@H]5CC[C@]43C)[C@H]12 , result: 2.9%

// inhibition at 72 h, 10 µM lookup, molecule = C[C@H]1[C@H](C)CC[C@]2(C(=O)OCCN3CCN(C(=O)c4cccnc4)CC3)CC[C@]3(C)C(=CC[C@@H]4[C@@]5(C)CC[C@H](O)C(C)(C)[C@@H]5CC[C@]43C)[C@H]12 , result: 52.3%

// inhibition at 72 h, 10 µM lookup, molecule = C[C@H]1[C@H](C)CC[C@]2(C(=O)OCCN3CCN(C(=O)c4cccc(F)c4)CC3)CC[C@]3(C)C(=CC[C@@H]4[C@@]5(C)CC[C@H](O)C(C)(C)[C@@H]5CC[C@]43C)[C@H]12 , result: 33.5%

// inhibition at 72 h, 10 µM lookup, molecule = C=C/C=C/CC(=O)N1CCN(CCOC(=O)[C@]23CC[C@@H](C)[C@H](C)[C@H]2C2=CC[C@@H]4[C@@]5(C)CC[C@H](O)C(C)(C)[C@@H]5CC[C@@]4(C)[C@]2(C)CC3)CC1 , result: 35%

// inhibition at 72 h, 10 µM lookup, molecule = C[C@H]1[C@H](C)CC[C@]2(C(=O)OCCN3CCNCC3)CC[C@]3(C)C(=CC[C@@H]4[C@@]5(C)CC[C@H](O)C(C)(C)[C@@H]5CC[C@]43C)[C@H]12 , result: 60.1%

// inhibition at 72 h, 10 µM lookup, molecule = C[C@H]1[C@H](C)CC[C@]2(C(=O)OCCN3CCN(C(=O)c4c(F)cccc4Cl)CC3)CC[C@]3(C)C(=CC[C@@H]4[C@@]5(C)CC[C@H](O)C(C)(C)[C@@H]5CC[C@]43C)[C@H]12 , result: 24.4%
